Some binders, each annotated with its measured EC50.
biological target: T1, human activated Protein C (human, UniProt P04070 43-461); assay: direct ELISA, aPC coated, hIgG1
T1 construct: also called human aPC; hAPC
Kindly provide the numeric value in nM only, without the unit symbol.

Value lookup for EC50; key = R41C17 hIgG1 (antibody, V domains shown) VH: EVQLLESGGGLVQPGGSLRLSCAASGFTFSNYAMSWVRQSPGKGLEWVAVISYDGREKYYSDSVKGRFTISRDNSKNTLYLQMNSLRAEDTAVYYCARDRGRTFDYWGQGTLVTVTS VL: LTQPPSASGTPGQRVTISCTGSSSNIGAGYVVHWYQQLPGTAPKLLIYRNNHRPSGVPDRFSGSKSGTSASLAISGLRSEDEADYYCAAWDDSLNGRVFGGGTKLTVLG
0.55

Note, next up: C22J13 hIgG1 (antibody, V domains shown) VH: EVQLLESGGGLVQPGGSLRLSCAASGFTFSSNYMSWVRQAPGKGLEWVAVISYDGSNKYYADSVKGRFTISRDNSKNTLYLQMNSLRAEDTAMYYCALTGRSGWMRFPNWFDPWGQGTLVTVTS VL: QSVLTQPPSASGTPGQRVTISCSGSDSNIGSNAVNWYQQLPGTAPKLLIYDNNKRPSGVPDRFSGSKSGTSASLAISGLRSEDEADYYCSSYTSSNTVVFGGGTKLTVLG
0.49

Note, next up: T46P19 hIgG1 (antibody, V domains shown) VH: EVQLLESGGGLVQPGGSLRLSCAASGFTFSGYGMHWVRQAPGKGLEWVSGINWNGGSTGYADSVKGRFTISRDNSKNTLYLQMNSLRAEDTAVYYCARNRATRSGYYYFDSWGQGTLVTVTS VL: LTQPPSASGTPGQRVTISCTGSSSNIGAGYDVHWYQQLPGTAPKLLIYGNINRPSGVPDRFSGSKSGTSASLAISGLRSEDEADYYCSSYTRSATLVFGGGTKLTVLG
0.37
